- subject-of-test: PD-1/PD-L1 (Homo sapiens)
- Construct: Recombinant human PD-L1 protein (19-238) with a Histag at the C-terminus; PD1-H5257 (PD-1)
- assay-remarks: PD-1/PD-L1 Homogeneous Time-Resolved Fluorescence (HTRF) Binding Assay
- experimental-conditions: PD-1/PD-L1 HTRF activity; 3 nM PD1, 10 nM PD-L1, 25° C.
pIC50: −log10 of the molar value.
readout: pIC50

O=c1[nH]c(C[C@@H]2CCCN2)nn2cc(-c3cccc(-c4cccc(-c5cc6c(=O)[nH]c(C[C@@H]7CCCN7)nn6c5)c4Cl)c3Cl)cc12 : 7.00 to 8.00

Record request: pIC50 value, item `O=C1CC[C@@H](Cn2cnc3sc(-c4cccc(-c5cccc(-c6cc7c(=O)n(C[C@@H]8CCC(=O)N8)cnc7s6)c5Cl)c4Cl)cc3c2=O)N1` 7.00 to 8.00

Same read-out for `Cn1c(C[C@@H]2CCCN2)nn2cc(-c3cccc(-c4cccc(-c5cc6c(=O)n(C)c(C[C@@H]7CCCN7)nn6c5)c4Cl)c3Cl)cc2c1=O` ? 7.00 to 8.00

# iterate: `Cc1cn2nc(-c3cccc(-c4cccc(-c5cc6c(=O)n(CCN[C@H](CO)C(=O)O)c(C)cn6n5)c4Cl)c3Cl)cc2c(=O)n1CCN[C@H](CO)C(=O)O` 7.00 to 8.00

----------
- subject-of-test: PD-1/PD-L1 (Homo sapiens, UniProt Q9NZQ7)
- Construct: Recombinant human PD-L1 protein (19-238) with a Histag at the C-terminus; PD1-H5257 (PD-1)
- Sequence (Q9NZQ7 19-238): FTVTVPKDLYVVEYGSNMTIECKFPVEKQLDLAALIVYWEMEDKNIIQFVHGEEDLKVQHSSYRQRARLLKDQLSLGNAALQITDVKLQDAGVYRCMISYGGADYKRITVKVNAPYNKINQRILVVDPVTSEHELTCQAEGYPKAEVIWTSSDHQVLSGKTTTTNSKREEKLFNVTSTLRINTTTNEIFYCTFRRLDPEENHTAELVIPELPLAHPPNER
- assay-remarks: PD-1/PD-L1 Homogeneous Time-Resolved Fluorescence (HTRF) Binding Assay
- experimental-conditions: PD-1/PD-L1 HTRF activity; 3 nM PD1, 10 nM PD-L1, 25° C.
Counter-ions that a name gives are not always drawn.
Catalogue of IC50 readings, one per entry.

Cc1cn2cc(-c3cccc(-c4cccc(-c5cc6c(=O)n(CCN[C@@H](CCO)C(=O)O)c(C)cn6c5)c4Cl)c3Cl)cc2c(=O)n1CCN[C@@H](CCO)C(=O)O : 10 to 100 nM
Cn1c(-c2cccc(-c3cccc(-c4cc5ncn(C[C@@H]6CCC(=O)N6)c(=O)c5n4C)c3Cl)c2Cl)cc2ncn(C[C@@H]3CCC(=O)N3)c(=O)c21 : ≥ 100 nM
Cc1cn2nc(-c3cccc(-c4cccc(-c5cc6c(=O)n(CCN[C@]7(C(=O)O)C[C@@H](O)C7)c(C)cn6n5)c4Cl)c3Cl)cc2c(=O)n1CCN[C@]1(C(=O)O)C[C@@H](O)C1 : < 10 nM
O=c1c2cc(-c3cccc(-c4cccc(-c5cc6c(=O)n(CCn7cncn7)cnn6c5)c4Cl)c3Cl)cn2ncn1CCn1cncn1 : 10 to 100 nM

Here's the next entry for you.
Fill blank: measured IC50 of the molecule Cc1cn2nc(-c3cccc(-c4cccc(-c5cc6c(=O)n(C[C@H]7CCCN7)c(C)cn6n5)c4Cl)c3Cl)cc2c(=O)n1C[C@H]1CCCN1 [Compound 37, dihydrochloride] is ____. 10 to 100 nM

----------
- subject-of-test: PD-1/PD-L1 (Homo sapiens)
- Construct: Recombinant human PD-L1 protein (19-238) with a Histag at the C-terminus; PD1-H5257 (PD-1)
- assay-remarks: PD-1/PD-L1 Homogeneous Time-Resolved Fluorescence (HTRF) Binding Assay
- experimental-conditions: PD-1/PD-L1 HTRF activity; 3 nM PD1, 10 nM PD-L1, 25° C.
Entries and their IC50

Some molecules with recorded IC50:
O=C1CC[C@@H](Cn2ccc3sc(-c4cccc(-c5cccc(-c6cc7c(=O)n(C[C@@H]8CCC(=O)N8)ccc7s6)c5Cl)c4Cl)cc3c2=O)N1 : 0.01 to 0.1 µM
Cc1cn2cc(-c3cccc(-c4cccc(-c5cc6c(=O)n(CCNCC7CCCN7)c(C)cn6c5)c4Cl)c3Cl)cc2c(=O)n1CCNCC1CCCN1 (stereo not drawn) : ≥ 0.1 µM

Consider now this further molecule.
Find the recorded IC50 belonging to `O=C1CC[C@@H](Cn2ccn3cc(-c4cccc(-c5cccc(-c6cn7ccn(C[C@@H]8CCC(=O)N8)c(=O)c7n6)c5Cl)c4Cl)nc3c2=O)N1` and report it. 0.01 to 0.1 µM
